# Tested System: RbMPO-LEKREAEALEKREAEA-GOx chimera (Rhodopirellula baltica myeloperoxidase, SEQ ID NO: 10); linker SEQ ID NO: 6; Penicillium amagasakiens glucose oxidase, SEQ ID (Penicillium amagasakiense, UniProt P81156)
# Sequence (P81156 with tags, fused parts or gaps): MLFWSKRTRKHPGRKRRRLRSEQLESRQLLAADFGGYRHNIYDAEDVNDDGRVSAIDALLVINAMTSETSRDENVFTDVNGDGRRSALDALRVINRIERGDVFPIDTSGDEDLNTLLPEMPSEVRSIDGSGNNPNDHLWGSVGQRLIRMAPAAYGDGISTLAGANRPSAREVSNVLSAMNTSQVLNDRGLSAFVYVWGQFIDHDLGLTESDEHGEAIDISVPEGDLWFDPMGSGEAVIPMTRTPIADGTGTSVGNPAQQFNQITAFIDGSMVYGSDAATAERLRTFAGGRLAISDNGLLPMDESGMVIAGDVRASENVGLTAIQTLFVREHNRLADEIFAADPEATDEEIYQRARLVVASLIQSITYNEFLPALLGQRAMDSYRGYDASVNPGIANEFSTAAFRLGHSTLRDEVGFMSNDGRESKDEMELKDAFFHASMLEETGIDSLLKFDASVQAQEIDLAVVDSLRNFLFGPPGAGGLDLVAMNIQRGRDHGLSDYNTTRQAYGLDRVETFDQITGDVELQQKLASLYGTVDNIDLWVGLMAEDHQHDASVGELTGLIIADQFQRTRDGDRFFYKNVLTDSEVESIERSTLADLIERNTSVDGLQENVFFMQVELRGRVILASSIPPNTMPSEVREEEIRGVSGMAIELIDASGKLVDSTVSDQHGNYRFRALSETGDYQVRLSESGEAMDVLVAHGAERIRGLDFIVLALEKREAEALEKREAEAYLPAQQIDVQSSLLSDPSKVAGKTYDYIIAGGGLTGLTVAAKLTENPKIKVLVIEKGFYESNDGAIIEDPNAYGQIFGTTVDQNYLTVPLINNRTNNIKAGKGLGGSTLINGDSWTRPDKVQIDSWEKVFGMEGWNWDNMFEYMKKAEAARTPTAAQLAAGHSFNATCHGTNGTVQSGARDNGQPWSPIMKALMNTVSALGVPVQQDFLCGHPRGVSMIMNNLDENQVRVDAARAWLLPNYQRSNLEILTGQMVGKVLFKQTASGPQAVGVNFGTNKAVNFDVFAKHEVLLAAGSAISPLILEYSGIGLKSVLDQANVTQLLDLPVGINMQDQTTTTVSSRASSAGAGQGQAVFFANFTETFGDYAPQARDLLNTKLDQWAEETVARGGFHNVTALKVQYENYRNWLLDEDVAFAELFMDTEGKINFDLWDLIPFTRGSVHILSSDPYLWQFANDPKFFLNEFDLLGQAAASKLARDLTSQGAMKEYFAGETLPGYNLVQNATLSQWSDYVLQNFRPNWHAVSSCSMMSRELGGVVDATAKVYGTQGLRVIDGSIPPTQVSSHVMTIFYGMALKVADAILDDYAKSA
# Measurement Context: read-out: Ki H2O2; dimer/monomer; 20 mM NaCl, pH7.5; substrate inhibition
Readout Label: Ki (mM)
Return type: number; implicit unit mM.

Exercise: Recorded Ki of OO [H2O2, hydrogen peroxide] , please.
Key: 4.63

----------
# Tested System: RbMPO-LEKREAEA-GOx chimera (Rhodopirellula baltica myeloperoxidase, SEQ ID NO: 10; linker SEQ ID NO: 7; Penicillium amagasakiens glucose oxidase, SEQ ID NO: 12) (Penicillium amagasakiense, UniProt P81156)
# Measurement Context: read-out: Ki H2O2; trimer; 20 mM NaCl, pH7.5; substrate inhibition
Readout Label: pKi
Scale for pKi: -log10 of concentration given in mol/L; no unit attached.

Exercise: Recorded pKi of OO [H2O2, hydrogen peroxide] , please.
Key: 2.67

----------
# Tested System: RbMPO-LEKRPEAEA-GOx chimera (Rhodopirellula baltica myeloperoxidase, SEQ ID NO: 10); linker SEQ ID NO: 8; Penicillium amagasakiens glucose oxidase, SEQ ID NO: 12 (Penicillium amagasakiense, UniProt P81156)
# Sequence (P81156 with tags, fused parts or gaps): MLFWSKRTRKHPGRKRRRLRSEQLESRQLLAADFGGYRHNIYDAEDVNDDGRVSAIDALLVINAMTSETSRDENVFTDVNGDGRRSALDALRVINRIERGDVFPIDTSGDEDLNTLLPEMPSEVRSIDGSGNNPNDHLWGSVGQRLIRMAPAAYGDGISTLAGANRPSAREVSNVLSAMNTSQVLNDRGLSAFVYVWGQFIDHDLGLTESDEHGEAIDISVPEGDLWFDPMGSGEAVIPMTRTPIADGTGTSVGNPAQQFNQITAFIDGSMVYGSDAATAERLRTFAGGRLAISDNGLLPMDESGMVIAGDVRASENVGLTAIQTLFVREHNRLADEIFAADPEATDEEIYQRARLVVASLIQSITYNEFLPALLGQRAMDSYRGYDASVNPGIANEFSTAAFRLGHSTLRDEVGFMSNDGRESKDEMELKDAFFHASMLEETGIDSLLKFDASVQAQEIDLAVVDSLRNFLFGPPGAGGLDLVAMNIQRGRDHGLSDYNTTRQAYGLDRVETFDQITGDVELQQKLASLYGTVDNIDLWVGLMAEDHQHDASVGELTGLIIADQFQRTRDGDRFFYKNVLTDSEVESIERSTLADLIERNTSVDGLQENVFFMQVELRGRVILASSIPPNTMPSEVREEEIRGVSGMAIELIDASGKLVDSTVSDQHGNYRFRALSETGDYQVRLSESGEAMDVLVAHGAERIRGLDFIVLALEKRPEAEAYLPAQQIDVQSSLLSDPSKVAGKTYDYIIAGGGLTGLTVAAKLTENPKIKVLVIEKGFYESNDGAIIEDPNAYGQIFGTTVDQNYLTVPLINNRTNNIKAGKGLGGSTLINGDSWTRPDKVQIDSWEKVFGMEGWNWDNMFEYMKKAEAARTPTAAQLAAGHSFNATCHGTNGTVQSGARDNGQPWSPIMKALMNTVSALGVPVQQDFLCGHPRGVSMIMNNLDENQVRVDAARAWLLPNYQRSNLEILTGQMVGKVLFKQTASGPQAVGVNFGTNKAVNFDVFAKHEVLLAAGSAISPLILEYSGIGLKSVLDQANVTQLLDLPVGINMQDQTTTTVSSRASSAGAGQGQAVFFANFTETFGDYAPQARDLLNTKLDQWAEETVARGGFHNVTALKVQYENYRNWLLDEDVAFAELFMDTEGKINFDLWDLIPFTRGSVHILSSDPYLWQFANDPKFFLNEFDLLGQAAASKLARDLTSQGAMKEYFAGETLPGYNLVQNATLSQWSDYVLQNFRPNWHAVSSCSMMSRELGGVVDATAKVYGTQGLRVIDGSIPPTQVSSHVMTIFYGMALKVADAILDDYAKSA
# Measurement Context: read-out: Ki H2O2; trimer; 20 mM NaCl, pH7.5; substrate inhibition
Readout Label: Ki (mM)
Return type: number; implicit unit mM.

Exercise: Recorded Ki of OO [H2O2, hydrogen peroxide] , please.
Key: 35.9

----------
# Tested System: RbMPO-LEKREAEALEKREAEA-GOx chimera (Rhodopirellula baltica myeloperoxidase, SEQ ID NO: 10); linker SEQ ID NO: 6; Penicillium amagasakiens glucose oxidase, SEQ ID (Penicillium amagasakiense)
# Measurement Context: read-out: Ki H2O2; trimer; 20 mM NaCl, pH7.5; substrate inhibition
Readout Label: pKi
Scale for pKi: -log10 of concentration given in mol/L; no unit attached.

Exercise: Recorded pKi of OO [H2O2, hydrogen peroxide] , please.
Key: 3.22

----------
# Tested System: RbMPO-GGGGGGGG-GOx chimera (Rhodopirellula baltica myeloperoxidase, SEQ ID NO: 10; linker SEQ ID NO: 9; Penicillium amagasakiens glucose oxidase, SEQ ID NO: 12) (Penicillium amagasakiense)
# Measurement Context: read-out: Ki H2O2; dimer/monomer; 20 mM NaCl, pH7.5; substrate inhibition
Readout Label: Ki (µM)
Return type: number; implicit unit µM.

Exercise: Recorded Ki of OO [H2O2, hydrogen peroxide] , please.
Key: 32.9

----------
# Tested System: RbMPO-LEGGEAEA-GOx chimera (Rhodopirellula baltica myeloperoxidase, SEQ ID NO: 10; linker SEQ ID NO: 4; Penicillium amagasakiens glucose oxidase, SEQ ID NO: 12) (Penicillium amagasakiense, UniProt P81156)
# Measurement Context: read-out: Ki H2O2; monomer 1; 20 mM NaCl, pH7.5; substrate inhibition
Readout Label: Ki (mM)
Return type: number; implicit unit mM.

Exercise: Recorded Ki of OO [H2O2, hydrogen peroxide] , please.
Key: 34.9

----------
# Tested System: UniProt P81156
Readout Label: pKi
Scale for pKi: -log10 of concentration given in mol/L; no unit attached.

Exercise: Any idea what pKi came out for OO [H2O2, hydrogen peroxide] on UniProt P81156?
Key: 2.72

----------
# Tested System: RbMPO-LEKRPEAEA-GOx chimera (Rhodopirellula baltica myeloperoxidase, SEQ ID NO: 10); linker SEQ ID NO: 8; Penicillium amagasakiens glucose oxidase, SEQ ID NO: 12 (Penicillium amagasakiense, UniProt P81156)
# Measurement Context: read-out: Ki H2O2; dimer/monomer; 20 mM NaCl, pH7.5; substrate inhibition
Readout Label: Ki
Please append the unit to your numeric answer.

Exercise: Recorded Ki of OO [H2O2, hydrogen peroxide] , please.
Key: 6.3 mM

----------
# Tested System: RbMPO-GGGGGGGG-GOx chimera (Rhodopirellula baltica myeloperoxidase, SEQ ID NO: 10; linker SEQ ID NO: 9; Penicillium amagasakiens glucose oxidase, SEQ ID NO: 12) (Penicillium amagasakiense, UniProt P81156)
# Sequence (P81156 with tags, fused parts or gaps): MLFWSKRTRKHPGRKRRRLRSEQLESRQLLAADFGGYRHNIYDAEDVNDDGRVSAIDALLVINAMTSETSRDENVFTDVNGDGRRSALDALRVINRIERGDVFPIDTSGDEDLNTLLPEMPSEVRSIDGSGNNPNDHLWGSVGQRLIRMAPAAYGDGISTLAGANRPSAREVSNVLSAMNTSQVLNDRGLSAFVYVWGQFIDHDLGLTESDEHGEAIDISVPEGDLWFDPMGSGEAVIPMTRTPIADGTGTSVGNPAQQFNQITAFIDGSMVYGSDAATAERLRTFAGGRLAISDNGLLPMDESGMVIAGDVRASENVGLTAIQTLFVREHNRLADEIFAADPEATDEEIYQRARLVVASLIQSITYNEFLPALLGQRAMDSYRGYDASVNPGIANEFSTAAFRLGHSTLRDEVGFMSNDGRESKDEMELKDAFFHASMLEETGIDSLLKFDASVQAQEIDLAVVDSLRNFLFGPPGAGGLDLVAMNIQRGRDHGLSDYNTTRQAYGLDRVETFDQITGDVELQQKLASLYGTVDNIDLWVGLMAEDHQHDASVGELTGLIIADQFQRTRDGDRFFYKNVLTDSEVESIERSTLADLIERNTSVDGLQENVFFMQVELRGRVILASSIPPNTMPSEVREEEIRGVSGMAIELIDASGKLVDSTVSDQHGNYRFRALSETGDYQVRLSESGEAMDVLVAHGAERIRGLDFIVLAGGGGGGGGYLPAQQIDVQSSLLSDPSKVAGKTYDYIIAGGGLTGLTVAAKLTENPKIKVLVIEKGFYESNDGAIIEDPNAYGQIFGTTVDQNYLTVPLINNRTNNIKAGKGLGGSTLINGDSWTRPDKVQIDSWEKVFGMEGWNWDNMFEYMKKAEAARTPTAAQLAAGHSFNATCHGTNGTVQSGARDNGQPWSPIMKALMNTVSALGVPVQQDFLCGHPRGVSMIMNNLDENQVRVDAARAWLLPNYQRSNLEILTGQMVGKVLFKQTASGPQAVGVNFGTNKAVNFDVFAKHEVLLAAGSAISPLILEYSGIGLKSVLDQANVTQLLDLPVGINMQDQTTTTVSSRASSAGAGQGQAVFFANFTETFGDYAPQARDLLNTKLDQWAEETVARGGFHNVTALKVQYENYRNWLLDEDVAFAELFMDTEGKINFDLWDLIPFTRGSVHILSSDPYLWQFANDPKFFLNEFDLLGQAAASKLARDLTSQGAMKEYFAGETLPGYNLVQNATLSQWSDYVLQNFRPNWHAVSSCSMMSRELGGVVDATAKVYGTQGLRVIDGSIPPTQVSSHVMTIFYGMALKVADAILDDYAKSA
# Measurement Context: read-out: Ki H2O2; trimer; 20 mM NaCl, pH7.5; substrate inhibition
Readout Label: Ki (mM)
Return type: number; implicit unit mM.

Exercise: Recorded Ki of OO [H2O2, hydrogen peroxide] , please.
Key: 5.92

Origin of measurements: patent US20260201347A1
